assay: Lipophilicity, log D of the compound
Assay type: physicochemical
stated.conditions: octanol/water
Response field label takes Met when logD is strictly below 3 and Not met in all other cases.

>>> print(df.to_string())
                                   compound  class_name
0  CC(C)CN1C(=O)CN(Cc2ccc(-c3cccc(CN4CCCC(C)C4)n3)cc2)C1=O (centres undefined)     Not met
1  O=C1CN(Cc2ccc(-c3ccc(F)c(CN4CCCCC4)n3)cc2)C(=O)N1CC1CC1         Met
2  CC(C)CN1C(=O)CN(Cc2ccc(-c3cccc(CN4CCCC(F)(F)C4)n3)cc2)C1=O     Not met
3  CC(C)CN1C(=O)CN(Cc2ccc(-c3ccc(F)c(CN4CCCC(F)(F)C4)n3)cc2)C1=O     Not met
4  O=C1CN(Cc2ccc(-c3ccc(F)c(CN4CCCCC4)n3)cc2)C(=O)N1C1CC1         Met
5  CCN1C(=O)CN(Cc2ccc(-c3cccc(CC4CCCCC4)n3)cc2)C1=O     Not met
6  CC(C)N1C(=O)CN(Cc2ccc(-c3cccc(CN4CCCCC4)n3)cc2)C1=O         Met
7  CC(C)CN1C(=O)CN(Cc2ccc(-c3ccc(F)c(CN4CCCC(F)C4)n3)cc2)C1=O (centres undefined)     Not met
8  CC(C)CN1C(=O)CN(Cc2ccc(-c3ccc(F)c(CN4CCOCC4)n3)cc2)C1=O     Not met

---

assay: Volume of distribution at steady state in Wistar BRL rat plasma at 1 mg/kg, iv and 5 mg/kg, po
Assay type: ADME, organism-based
stated.conditions: read-out: Vdss
Catalogue of Vd readings, one per entry.
property.measured: Vd

>>> df
                         chemical_structure     result
0  O=C1CN(Cc2ccc(-c3ccc(F)c(CN4CCS(=O)(=O)CC4)n3)cc2)C(=O)N1C1CC1  0.94 L/kg
1  CC(C)CN1C(=O)CN(Cc2ccc(-c3cccc(CN4CCCCC4)n3)cc2)C1=O   5.4 L/kg

---

Consider the following compounds and their measured Papp at 1 h, 20 µM readings.
assay: Apparent permeability across human Caco2 cell membrane at 20 uM after 1 hr by LC-MS/MS analysis
stated.conditions: Caco-2
property.measured: Papp at 1 h, 20 µM (nm/s)

>>> df
                         chemical_structure  unit_info  measured_number
0  O=C1CN(Cc2ccc(-c3ccc(F)c(CN4CCS(=O)(=O)CC4)n3)cc2)C(=O)N1C1CC1       nm/s              173
1  CC(C)CN1C(=O)CN(Cc2ccc(-c3cccc(CN4CCCCC4)n3)cc2)C1=O       nm/s              210

---

assay: Dissociation constant, pKa of the compound
Type: physicochemical
property.measured: pKa

>>> df
                                   compound  measured_number
0  O=C1CN(Cc2ccc(-c3ccc(F)c(CN4CCCCC4)n3)cc2)C(=O)N1CC(F)F                9
1  O=C1CN(Cc2ccc(-c3cccc(CN4CCCCC4)n3)cc2)C(=O)N1CC(F)F              8.9
2  CC(C)CN1C(=O)CN(Cc2ccc(-c3cccc(CN4CCCCC4)n3)cc2)C1=O              8.9
3  CC(C)CN1C(=O)CN(Cc2ccc(-c3cccc(CN4CCCC(F)(F)C4)n3)cc2)C1=O              5.3
4  CC(C)CN1C(=O)CN(Cc2ccc(-c3ccc(F)c(CN4CCCC(F)C4)n3)cc2)C1=O (centres undefined)              7.2
5  CC(C)CN1C(=O)CN(Cc2ccc(-c3ccc(F)c(CN4CCCC(C)C4)n3)cc2)C1=O (centres undefined)              8.4
6  CCN1C(=O)CN(Cc2ccc(-c3ccc(F)c(CN4CCCCC4)n3)cc2)C1=O              8.5
7  CCCN1C(=O)CN(Cc2ccc(-c3cccc(CN4CCCCC4)n3)cc2)C1=O              8.8
8  O=C1CN(Cc2ccc(-c3ccc(F)c(CN4CCCCC4)n3)cc2)C(=O)N1CC1CCC1              8.6
